assay: ovarian cancer cell viability with rucaparib, profiling panel, oncology-focused library, rucaparib conditional (AID 1508598); conditions: patient-derived ovarian cancer cells, CellTiter-Glo viability, 144 h; at 0.00122 µM; OCI-P5x cells; with rucaparib 20 µM; 100% = cells with rucaparib alone
The source made the active and inactive calls.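 How the source made its calls: active means normalized viability below 100% at a tested concentration; inactive means the rest.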
# valid calls are TRUE (active), FALSE (inactive); nothing else

[[record]]
molecule = "CS(=O)c1ccc(-c2nc(-c3ccc(F)cc3)c(-c3ccncc3)[nH]2)cc1 (centres undefined)"
label_class = "FALSE"

[[record]]
molecule = "C[C@@H](N)C1CCC(C(=O)Nc2ccncc2)CC1 (some centres undefined)"
label_class = "TRUE"

[[record]]
molecule = "O=C1CN2Cc3c(ccc(Cl)c3Cl)N=C2N1"
label_class = "FALSE"


What was the test verdict on "CN(C)CCCn1cc(C2=C(c3c[nH]c4ccccc34)C(=O)NC2=O)c2ccccc21" ?
FALSE

###

tested on: F380Y/beta2Delta; assay: modulators of BK channel variants, profiling panel, selectivity assay, cell-based, U2OS BacMam, thallium flux, beta subunits (AID 1259406); conditions: at 30 µM;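 further: initial slope of Thallos dye fluorescence rise after thallium is added; log ratio against the mean of 0.3% DMSO vehicle wells on the same plate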
Non-standard residues stand in square brackets, D forms with d. Residues, ends and D or L forms follow the SMILES beside them. pGlu = O=C1CC[C@@H](C(=O)O)N1; Thz = O=C(O)[C@@H]1CSCN1
So basically: is log fold change Tl+ flux under -0.003? Then 1.0. Not under? Then 0.0.

Worked examples, 5 compounds total:
[[record]]
compound = "CN1c2ccccc2C(C)(C)C12C=Cc1cc(Br)cc([N+](=O)[O-])c1O2 (stereo not given)"
label_class = 0.0

[[record]]
compound = "COc1ccc2c(OC(C)=O)coc2c1"
label_class = 1.0

[[record]]
compound = "COc1ccnc(CS(=O)c2nc3cc(OC(F)F)ccc3[nH]2)c1OC (stereo not given)"
label_class = 0.0

[[record]]
compound = "O=C1CSCC(=O)N1c1csc(C(F)(F)F)c1-c1ccccc1"
label_class = 1.0

[[record]]
compound = "COc1cccc(N2CC(=O)N(NC(=O)NC3CCCCC3)CC2=O)c1"
label_class = 1.0


Is it true that log fold change Tl+ flux reported for "CCc1ccc(C(=O)Nc2cccc(S(N)(=O)=O)c2)cc1" is less than -0.003?
1.0

Please give the result for O=C1CC[C@@H](C(=O)N2CSC[C@H]2C(=O)O)N1 ([pGlu]-[Thz]-OH) too.
0.0

Moving on to "CN1CCC[C@H]1c1cccnc1"
0.0

Now the compound "O=C(Nc1ccc(-n2ccc(C(F)(F)F)n2)cc1)C1=Cc2cc(Cl)ccc2OC1"
0.0

Try this compound next: "Cc1cc2nccc(-c3cccnc3)n2n1"
0.0

###

The compounds listed here are annotated with their fluorescence ratio (interference).
assay: Cy5 fluorescence quenching or enhancement artefacts, artefact control for HCV NS3 helicase inhibitor project, biochemical, LOPAC1280 (AID 687037); details: Cy5-DNA-NS3h complex fluorescence interference counterscreen
The source made the active and inactive calls. The rule behind the calls is not given here.

Worked examples, 5 compounds total:
[[record]]
compound = "Cc1ccc(O)c(N=Nc2ccccc2)n1"
reported_endpoint = "fluorescence ratio (interference)"
observed_result = "0.9 (inactive)"

[[record]]
compound = "COc1cc(SC)ccc1C(=O)N1CCC(Cc2ccccc2)CC1"
reported_endpoint = "fluorescence ratio (interference)"
observed_result = "1 (inactive)"

[[record]]
compound = "CCCCS(=N)(=O)CCC(N)C(=O)O (configuration not stated)"
reported_endpoint = "fluorescence ratio (interference)"
observed_result = "1 (inactive)"

[[record]]
compound = "O=c1[nH]c2ccccc2c2ccccc12"
reported_endpoint = "fluorescence ratio (interference)"
observed_result = "1 (inactive)"

[[record]]
compound = "O=C(O)c1ccccc1Nc1ccccc1"
reported_endpoint = "fluorescence ratio (interference)"
observed_result = "0.9 (inactive)"


Record request: fluorescence ratio (interference) value, item "O=C(OCCN1CCOCC1)C1(c2ccccc2)CCCCC1"
1 (inactive)

Try this compound too: "NC(N)=NC(N)=Nc1cccc(Cl)c1"
1 (inactive)

Another compound to look at: "O=C(O)c1ccccc1Nc1cccc(OCc2ccc3ccccc3n2)c1"
1 (inactive)
